Source of measurements: BindingDB's records for doi:10.1021/jm070645a

Target: Mitogen-activated protein kinase 1 (Homo sapiens, UniProt P28482)
Sequence (P28482 whole entry): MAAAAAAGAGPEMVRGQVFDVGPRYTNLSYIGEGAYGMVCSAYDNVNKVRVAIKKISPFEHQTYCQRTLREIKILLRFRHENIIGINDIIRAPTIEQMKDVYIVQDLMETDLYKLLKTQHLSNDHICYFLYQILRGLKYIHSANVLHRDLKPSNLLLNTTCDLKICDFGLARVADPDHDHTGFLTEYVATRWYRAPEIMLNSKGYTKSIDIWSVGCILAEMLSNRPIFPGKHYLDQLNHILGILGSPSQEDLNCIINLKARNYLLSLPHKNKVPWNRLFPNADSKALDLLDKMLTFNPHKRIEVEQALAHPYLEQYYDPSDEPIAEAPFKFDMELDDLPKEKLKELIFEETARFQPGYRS
Assay: Radiological Kinase Inhibition Assay
Conditions: pH 7.5; 22 °C
Experimental: Kinase activity was assayed for autophosphorylation and phosphorylation of MBP with radio-labeled gamma-32P. IC50 values were calculated from binding curves using LSW Data Analysis Tool Box version 1.1.1 in MicroSoft Excel.
METRIC: IC50 (µM)
Answers are plain numbers, in µM.

Entry O=C1NC(=O)C(=Cc2ccc(Sc3ccc(Cl)cc3)c([N+](=O)[O-])c2)C(=O)N1 has what IC50?
53
